FYI, the data here is from patent US8946215B2.

Biological target: recombinant guanylate cyclase reporter cell line (Rattus norvegicus, UniProt P19686+P20595)
Construct: expressed in transfected cells
Sequence (P20595 1-619): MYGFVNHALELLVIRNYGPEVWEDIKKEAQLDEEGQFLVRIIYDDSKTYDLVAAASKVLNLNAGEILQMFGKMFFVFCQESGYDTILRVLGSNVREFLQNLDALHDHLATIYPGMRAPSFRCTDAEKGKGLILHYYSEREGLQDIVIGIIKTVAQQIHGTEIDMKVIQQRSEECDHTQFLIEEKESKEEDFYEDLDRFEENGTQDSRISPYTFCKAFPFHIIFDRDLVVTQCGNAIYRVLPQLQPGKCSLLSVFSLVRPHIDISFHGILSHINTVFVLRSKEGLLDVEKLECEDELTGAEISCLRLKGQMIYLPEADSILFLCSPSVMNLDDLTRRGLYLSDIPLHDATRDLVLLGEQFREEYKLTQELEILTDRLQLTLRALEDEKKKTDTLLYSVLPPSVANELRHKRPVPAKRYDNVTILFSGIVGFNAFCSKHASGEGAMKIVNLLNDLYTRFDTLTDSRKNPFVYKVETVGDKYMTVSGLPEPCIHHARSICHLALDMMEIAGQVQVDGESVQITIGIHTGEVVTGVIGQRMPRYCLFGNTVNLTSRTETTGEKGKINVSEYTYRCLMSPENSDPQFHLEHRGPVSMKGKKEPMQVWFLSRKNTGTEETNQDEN
Sequence (P19686 1-690): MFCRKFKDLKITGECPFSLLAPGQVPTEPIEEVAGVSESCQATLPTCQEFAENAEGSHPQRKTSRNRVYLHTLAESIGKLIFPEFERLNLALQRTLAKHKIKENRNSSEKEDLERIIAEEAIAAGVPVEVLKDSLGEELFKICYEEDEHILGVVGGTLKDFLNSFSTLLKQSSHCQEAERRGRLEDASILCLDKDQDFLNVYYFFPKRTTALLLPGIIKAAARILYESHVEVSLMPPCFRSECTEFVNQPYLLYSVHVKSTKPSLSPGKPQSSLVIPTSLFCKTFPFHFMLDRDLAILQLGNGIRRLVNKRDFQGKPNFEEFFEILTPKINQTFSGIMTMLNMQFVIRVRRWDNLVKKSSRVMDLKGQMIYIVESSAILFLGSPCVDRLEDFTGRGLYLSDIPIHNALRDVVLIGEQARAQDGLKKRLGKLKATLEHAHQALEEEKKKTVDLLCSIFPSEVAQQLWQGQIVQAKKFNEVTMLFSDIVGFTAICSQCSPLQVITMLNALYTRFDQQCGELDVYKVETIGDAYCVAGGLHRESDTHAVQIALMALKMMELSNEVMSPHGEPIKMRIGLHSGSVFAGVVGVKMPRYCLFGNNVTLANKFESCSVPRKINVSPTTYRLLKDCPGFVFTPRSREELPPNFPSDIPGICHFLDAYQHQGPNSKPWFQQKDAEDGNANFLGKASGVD
Test: Action on recombinant guanylate cyclase reporter cell line
Type: cell-based
Details: in some cases mean values obtained from individual determinations
ENDPOINT_LABEL: MEC (minimal effective concentration) (µM)

1. Cc1nc2c(OCC3CCCCC3)cccn2c1C(=O)N[C@@H]1CCC[C@@H]1O (relative stereo)    0.65
2. Cc1cc(OCc2ncccc2F)c2nc(C)c(C(=O)NC(CCC(O)C(F)(F)F)C(C)(C)O)n2c1 (single isomer, unassigned; ent-8) [Example 196]    3
3. Cc1nc2c(OCC3CCCCC3)cccn2c1C(=O)NC(CO)CO    0.38

[P] Cc1nc2c(OCc3c(F)cccc3F)cccn2c1C(=O)NC(c1ccc(Cl)cc1)C(C)(C)O (racemic)
[Q] CCC(CO)NC(=O)c1c(C)nc2c(OCC3CCCCC3)cccn12 (racemic)
[R] CCCC[C@H](CO)NC(=O)c1c(C)nc2c(OCc3c(F)cccc3F)cc(N3CCCC3)cn12
Arrange items by their MEC (minimal effective concentration) values in increasing order. // rank by listing labels in the order requested Q, P, R

[1] Cc1nc2c(OCc3ncccc3F)cc(Cl)cn2c1C(=O)NC(CCCC(F)(F)F)C(C)(C)O (single isomer, unassigned; ent-6)
[2] CCCC[C@H](CO)NC(=O)c1c(C)nc2c(OCc3c(F)cccc3F)cc(C3CC3)cn12
// which entry reports the smaller MEC (minimal effective concentration), 1 or 2 ? // respond with label for picked entry 1
(1: 0.3 µM, 2: 1.0 µM)

[A] CCCC[C@H](CO)NC(=O)c1c(C)nc2c(OCCC(C(F)(F)F)C(F)(F)F)cc(C)cn12
[B] Cc1nc2c(OCc3cccc(Cl)c3Cl)cccn2c1C(=O)NC(CO)CO
[C] Cc1nc2c(OCc3c(F)cccc3F)cccn2c1C(=O)N[C@@H](CO)C(C)C
[D] CSCC[C@@H](CO)NC(=O)c1c(C)nc2c(OCC3CCCCC3)cccn12
[E] Cc1nc2c(OCc3c(F)cccc3F)cccn2c1C(=O)NC(CO)CCCC(F)(F)F (single isomer, unassigned; ent-8) [Example 123]
Arrange items by their MEC (minimal effective concentration) values in increasing order. // rank by listing labels in the order requested E, C, A, D, B

====

Target: recombinant guanylate cyclase reporter cell line (Rattus norvegicus, UniProt P19686+P20595)
Construct: expressed in transfected cells
Experiment: Action on recombinant guanylate cyclase reporter cell line
Type: cell-based
Settings: in some cases mean values obtained from individual determinations
Where a name gives a salt, the structure may show the parent alone.
ENDPOINT_LABEL: MEC (minimal effective concentration) (µM)

1. Cc1nc2c(OCc3c(F)cccc3F)cccn2c1C(=O)NC(CO)COCC(C)C (racemic)    1.0

[A] Cc1nc2c(OCC3CCCCC3)cccn2c1C(=O)N[C@H](CO)C(C)C
[B] Cc1nc2c(OCc3c(F)cccc3F)cccn2c1C(=O)N[C@@H](CO)C(C)(C)C
[C] CCCC[C@H](CO)NC(=O)c1c(C)nc2c(OCc3c(F)cccc3F)cc(C)cn12
[D] Cc1cc(OCCC(C)C)c2nc(C)c(C(=O)NC(CCCC(F)(F)F)C(C)(C)O)n2c1 (single isomer, unassigned; ent-2)
Arrange items by their MEC (minimal effective concentration) values in increasing order. // rank by listing labels in the order requested C, B, A, D

[A] Cc1cc(OCc2ncccc2F)c2nc(C)c(C(=O)NC(CCC(F)(F)C(F)(F)F)C(C)(C)O)n2c1 (single isomer, unassigned; ent-8) [Example 187]
[B] Cc1nc2c(OCc3c(F)cccc3F)cccn2c1C(=O)NCC(O)COc1ccccc1 (stereo not drawn)
[C] Cc1nc2c(OCc3c(F)cccc3F)cccn2c1C(=O)NCC(O)C(F)(F)F (racemic) [Example 106, trifluoroacetate]
Highest MEC (minimal effective concentration) first, then in falling order down to the smallest. // rank by listing labels in the order requested B, A, C
(B: 3.0 µM, A: 1 µM, C: 0.3 µM)

[A] CC[C@@H](CO)NC(=O)c1c(C)nc2c(OCC3CCCCC3)cccn12
[B] CCCC[C@H](CO)NC(=O)c1c(C)nc2c(OCc3cccc(C(F)(F)F)c3F)cccn12
Quick check, higher MEC (minimal effective concentration) between A and B ? // respond with label for picked entry B

[a] CCCCC(NC(=O)c1c(C)nc2c(OC(C)c3c(F)cccc3F)cc(C)cn12)C(C)(C)O (single isomer, unassigned; ent-8)
[b] Cc1nc2c(OCC3CCC3)cccn2c1C(=O)NCCOCCO
// which entry reports the smaller MEC (minimal effective concentration), a or b ? // respond with label for picked entry a
(a: 1.0 µM, b: 3.0 µM)

====

Molecular target: recombinant guanylate cyclase reporter cell line (Rattus norvegicus, UniProt P19686+P20595)
Construct: expressed in transfected cells
Experiment: Action on recombinant guanylate cyclase reporter cell line
Format: cell-based
Details: in some cases mean values obtained from individual determinations
ENDPOINT_LABEL: MEC (minimal effective concentration) (µM)

Example entries begin here.
1) CCC[C@@H](CO)NC(=O)c1c(C)nc2c(OCC3CCCCC3)cccn12    1.0
2) Cc1cc(OCc2ncccc2F)c2nc(C)c(C(=O)NC(CC(F)(F)F)C(C)(C)O)n2c1 (single isomer, unassigned; ent-8) [Example 185]    0.3
3) Cc1nc2c(OCc3c(F)cccc3F)cccn2c1C(=O)NC(CCC(F)(F)F)C(C)(C)O (single isomer, unassigned; ent-8) [Example 155]    0.1
4) CCCC[C@H](CO)NC(=O)c1c(C)nc2c(OCCC(C)C)cc(C)cn12    1.0
5) CCCC[C@H](CO)NC(=O)c1c(C)nc2c(OCc3c(F)cccc3F)cc(C#N)cn12    0.065
6) CCC(C)[C@H](CO)NC(=O)c1c(C)nc2c(OCC3CCCCC3)cccn12 (stereo partly shown)    3.0
7) Cc1cc(OCCC(C(F)(F)F)C(F)(F)F)c2nc(C)c(C(=O)NCC(O)c3ccc(Cl)cc3)n2c1 (racemic)    3.0
8) Cc1nc2c(OCc3ccccc3)cccn2c1C(=O)NCCC1(O)CCCC1    1.0

[P] Cc1cc(OCc2c(F)ccc(F)c2F)c2nc(C)c(C(=O)NC(CCC(F)(F)C(F)(F)F)C(C)(C)O)n2c1 (single isomer, unassigned; ent-2)
[Q] CCCC[C@H](CO)NC(=O)c1c(C)nc2c(OCCC(C)C)cccn12
[R] Cc1cccc(COc2cccn3c(C(=O)NC(CO)CO)c(C)nc23)c1Cl
[S] CCCC[C@H](CO)NC(=O)c1c(C)nc2c(OCc3c(C)cccc3C)cccn12
Arrange items by their MEC (minimal effective concentration) values in increasing order. // rank by listing labels in the order requested P, Q, S, R

[a] Cc1nc2c(OCc3c(F)cccc3F)cccn2c1C(=O)NC(CO)c1ccc(F)cc1 (single isomer, unassigned; ent-8) [Example 107]
[b] Cc1nc2c(OCc3c(F)cccc3F)cccn2c1C(=O)NC(CO)CC(F)(F)F (single isomer, unassigned; ent-8) [Example 121]
[c] CCCC[C@H](CO)NC(=O)c1c(C)nc2c(OCc3c(F)cccc3F)cc(Cl)cn12
[d] Cc1nc2c(OCc3c(F)cccc3F)cccn2c1C(=O)NCCC(C)(C)O
[e] Cc1nc2c(OCC3CCC3)cccn2c1C(=O)NCCC1(O)CCCCC1
Arrange items by their MEC (minimal effective concentration) values in increasing order. // rank by listing labels in the order requested c, b, a, d, e

[A] CCC[C@H](CO)NC(=O)c1c(C)nc2c(OCC3CCCCC3)cccn12
[B] CC[C@H](CO)NC(=O)c1c(C)nc2c(OCC3CCCCC3)cccn12
Quick check, higher MEC (minimal effective concentration) between A and B ? // respond with label for picked entry B
(B: 0.1 µM, A: 0.03 µM)

[P] Cc1nc2c(OCc3c(F)cccc3F)cccn2c1C(=O)N[C@@H]1CCC[C@H]1O
[Q] Cc1nc2c(OCC3CCCCC3)cccn2c1C(=O)NC[C@H](O)CO
[R] Cc1nc2c(OCc3c(F)cccc3F)cccn2c1C(=O)N[C@@H](CO)CCO
Arrange items by their MEC (minimal effective concentration) values in increasing order. // rank by listing labels in the order requested Q, P, R
